The measured values listed here are drawn from patent US20090239929A1.

Structures can show the parent of a compound that is named as a salt.
Lab note: pKi readings collected with human serotonin transporter (hSERT) (Homo sapiens) for the following compounds.
Sequence (P31645 whole entry): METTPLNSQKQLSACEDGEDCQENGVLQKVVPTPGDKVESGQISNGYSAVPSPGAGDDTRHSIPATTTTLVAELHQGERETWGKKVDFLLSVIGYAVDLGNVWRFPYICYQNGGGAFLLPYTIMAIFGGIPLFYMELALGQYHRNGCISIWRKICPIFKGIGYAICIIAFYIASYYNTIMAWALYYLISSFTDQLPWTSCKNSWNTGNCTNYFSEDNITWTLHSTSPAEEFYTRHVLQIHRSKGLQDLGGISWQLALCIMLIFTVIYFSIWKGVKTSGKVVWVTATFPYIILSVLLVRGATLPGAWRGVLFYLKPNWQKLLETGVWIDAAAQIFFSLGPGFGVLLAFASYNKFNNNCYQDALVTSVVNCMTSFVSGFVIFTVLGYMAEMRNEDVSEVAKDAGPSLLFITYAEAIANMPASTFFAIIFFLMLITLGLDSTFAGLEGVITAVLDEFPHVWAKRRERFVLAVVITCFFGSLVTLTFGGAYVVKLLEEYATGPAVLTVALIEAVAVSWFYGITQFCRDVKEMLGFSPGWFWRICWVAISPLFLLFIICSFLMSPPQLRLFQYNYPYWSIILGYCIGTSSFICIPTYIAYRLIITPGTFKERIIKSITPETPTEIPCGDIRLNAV
# log scale: pKi equals minus log10 of the concentration in mol/L

[[record]]
compound = "O=C(c1ccccc1Cl)N(C1CC2CCC1C2)[C@H]1CCNC1 (stereo partly shown) [Example 4]"
test_system = "human serotonin transporter (hSERT) (Homo sapiens)"
experimental_value = 8.22


Known value: human serotonin transporter (hSERT) (Homo sapiens) pKi of the compound O=C(c1cccc(Cl)c1Cl)N(CCC(F)(F)F)[C@H]1CCNC1 [Example 5, hydrochloride] equals 7.68

Lab entry: human serotonin transporter (hSERT) (Homo sapiens) assay, compound CC(F)(F)CN(C(=O)c1ccccc1Oc1ccccc1)[C@H]1CCNC1 [Example 7, hydrochloride] , pKi = 5.80

O=C(c1cccc(Cl)c1Cl)N(C(C1CC1)C1CC1)[C@H]1CCNC1 [Example 10, hydrochloride] on human serotonin transporter (hSERT) (Homo sapiens) gives pKi = 7.96
